Target: T1, human ICOS (human, UniProt Q9Y6W8 21-199)
T1 construct: The cell that carries it is named under assay; also called huICOS; CD278
T1 sequence: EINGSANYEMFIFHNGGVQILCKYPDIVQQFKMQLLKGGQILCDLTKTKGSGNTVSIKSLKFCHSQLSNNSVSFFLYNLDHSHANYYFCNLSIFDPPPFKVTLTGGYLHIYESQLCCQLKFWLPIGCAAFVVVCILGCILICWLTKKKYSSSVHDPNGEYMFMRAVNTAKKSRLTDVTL
Test: flow cytometry, CHO cells expressing human ICOS
Max (Log10(MFI)) values for the binders below.

The cases that follow already have their Max (Log10(MFI)) on record.
# Binder, Max (Log10(MFI))
records = [
    ("Molecule 33 (ICOS H1138_1) (antibody, human IgG1, kappa, L234A L235A, V domains shown, Human IgG format) VH: EVQLLESGGGLVQPGGSLRLSCAASGFDLSSYYYMSWVRQAPGKGLEWVSSIYADIYGGTTHYASWAKGRFTISKTSSKTTLYLQMNSLRAEDTAVYFCAREDGSRYGGSGYYNLWGQGTLVTVSS VL: DIQMTQSPSSLSASVGDRVTITCRASQNIYSNLAWYQQKPGQPPKLLIYAASYLTSGVPSRFSGSGSGTDFTLTISSLQPEDFATYYCQQGHTTDNIDNAFGGGTKVEIKR", "3.89 Log10(MFI)"),
    ("Molecule 34 (ICOS H1138_2) (antibody, human IgG1, kappa, L234A L235A, V domains shown, Human IgG format) VH: EVQLLESGGGLVQPGGSLRLSCAASGFDLSSYYYMSWVRQAPGKGLEWVSSIYADIYGGTTHYASWAKGRFTISRDNSKNTLYLQMNSLRAEDTAVYFCAREDGSRYGGSGYYNLWGQGTLVTVSS VL: AIQMTQSPSSLSASVGDRVTITCRASQNIYSNLAWYQQKPGKPPKLLIYAASYLTSGVSSRFSGSGSGTDFTLTISSLQPEDFATYYCQQGHTTDNIDNAFGGGTKVEIKR", "1.91 Log10(MFI)"),
]

State the recorded Max (Log10(MFI)) for this entry: Molecule 28 (ICOS 1143v2) (antibody, human IgG1, kappa, L234A L235A, V domains shown, Human IgG format; also called parent antibody of Molecules 29-31) VH: QSLEESGGDLVKPGASLTLTCKASGFDFSSAYDMSWVRQAPGKGLEWIGVIYYGDGITYYATSVKGRFTISKTSSTTVPLQMTSLTAADTATYFCARGAFLGSSYYLSLWGQGTLVTVSS VL: AIDMTQTPASVEAAVGGTVTINCQASENIYNWLAWYQQKPGQPPKLLIYDASKLASGVPSRFSASGSGTQFTLTISAVESADAATYYCQQAYTYGNIDNAFGGGTEVVVSR 4.88 Log10(MFI)
